Target: human GPCR sphingosine 1-phosphate receptor 2 (S1PR2) (Homo sapiens, UniProt O95136)
Sequence (O95136 whole entry): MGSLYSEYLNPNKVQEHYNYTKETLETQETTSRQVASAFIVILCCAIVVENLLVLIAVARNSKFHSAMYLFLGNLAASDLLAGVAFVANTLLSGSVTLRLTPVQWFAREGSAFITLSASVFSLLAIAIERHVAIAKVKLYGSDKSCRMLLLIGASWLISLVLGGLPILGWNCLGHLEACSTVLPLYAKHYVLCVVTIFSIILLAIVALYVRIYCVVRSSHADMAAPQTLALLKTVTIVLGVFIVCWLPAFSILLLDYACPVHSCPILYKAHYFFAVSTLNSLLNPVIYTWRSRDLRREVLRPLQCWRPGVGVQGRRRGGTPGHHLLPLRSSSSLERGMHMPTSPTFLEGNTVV
Assay: S1P2 antagonist assay (Ca2+ flux, S1P at EC80)
Settings: CHO-S1PR2 cells, highest concentration 20 μM
Could you please report measured EC50 for the items listed next?
A number alone suffices; assume nM.

Exercise: Reported EC50, molecule `Cc1cc(CNC(=O)Nc2cc(C(F)(F)F)nc(OCCO)c2C)nnc1-c1cn(C)nc1C(F)(F)F` : ____
Key: 84

Exercise: Given `Cc1cc(CNC(=O)Nc2cc(OCC3(C(F)(F)F)CC3)nc(C(F)(F)F)c2)nnc1-c1cn(C)nc1C(F)(F)F` , state its recorded EC50.
Key: 219

Exercise: If you can, please state the reported EC50 value of `CCOc1cc(NC(=O)NCc2cc(C)c(-c3cn(CCOC)nc3C(F)(F)F)nn2)cc(C(F)(F)F)n1` .
Key: 10

Exercise: Given the entry CCOc1ncc(NC(=O)NCc2cc(C)c(N3CC(C)OC(C)C3)nn2)cc1C(F)(F)F (stereo not drawn) , report its measured EC50.
Key: 487

Exercise: Consider the molecule COCC(C)Oc1cc(NC(=O)NCc2cc(C)c(-c3cn(C)nc3C(F)(F)F)nn2)cc(C(F)(F)F)n1 (stereo not drawn) and give its measured EC50.
Key: 101

Exercise: What value of EC50 has been reported for the following molecule? `CCOc1nc(C(F)(F)F)cc(NC(=O)NCc2cc(C)c(-c3cn(C)nc3C(F)(F)F)nn2)c1C`
Key: 6.1

Exercise: # input molecule: CCOc1cc(NC(=O)NCc2cc(C)c(N3CC(C)OC(C)C3)nn2)cc(Cl)n1 (stereo not drawn) ; wanted: its EC50
Key: 6

Exercise: What does the data say about its EC50? Entry: `CCOc1cc(NC(=O)NCc2cc(C)c(-c3cn(C)nc3C(F)(F)F)nn2)cc(C(F)(F)F)n1`
Key: 9.5

Exercise: Which EC50 value belongs to `Cc1cc(CNC(=O)Nc2cnc(OCC3CC3)c(C(F)(F)F)c2)nnc1-c1cn(C)nc1C(F)(F)F` ?
Key: 49.6

Exercise: Which EC50 reading was recorded for the molecule `Cn1cc(-c2nnc(CNC(=O)Nc3cc(Cl)nc(OCC(F)F)c3)cc2C2CC2)c(C(F)(F)F)n1` ?
Key: 14

Exercise: I'd like to know its EC50. The molecule in question is `Cc1cc(NC(=NC#N)NCc2cc(C)c(-c3cn(C)nc3C(F)(F)F)nn2)c(C)c(OCC(F)F)n1`
Key: 546

Exercise: What measured EC50 goes with `Cc1cc(NC(=O)NCc2cc(C)c(-c3cn(C)nc3C(F)(F)F)nn2)cc(OCC(F)F)n1` ?
Key: 59

Exercise: For the molecule shown here, `Cc1cc(CNC(=O)Nc2cc(Cl)cc(Cl)c2)nnc1-c1cn(C)nc1C(F)(F)F` , give the reported EC50.
Key: 16.9

Exercise: // lookup EC50 for `CCOc1cc(NC(=O)NCc2cc(C)c(N3CC(F)(F)C3)nn2)cc(Cl)n1`
Key: 11

Exercise: Requested field: EC50. Item: `Cc1cc(CNC(=O)Nc2cc(OCC(F)F)nc(C(F)(F)F)c2)nnc1-c1cn(C)nc1C(F)(F)F`
Key: 17.1
